Value source: patent US11395857B2

experiment: Biodistribution of 177Lu-labeled αMSH analogues in mice bearing B16F10 mouse melanoma; assay type: in vivo, C57BL/6J mice; settings: mouse, tumour/muscle, iv, total radioactivity; 24 h p.i., C57BL/6J mice, B16F10 melanoma; read-out: Tumour/muscle
measurement-label: tissue to tissue ratio at 24 h
Give only the figure.

Please give the measured tissue to tissue ratio at 24 h for this molecule: CCCC[C@H](NC(=O)CN1CCC(NC(=O)[C@H](CCCCNC(=O)CN2CCN(CC(=O)O)CCN(CC(=O)O)CCN(CC(=O)O)CC2)NC(=O)[C@H](CCC(=O)O)NC(=O)CCCc2ccc(I)cc2)CC1)C(=O)N[C@H]1CC(=O)NCCCC[C@@H](C(N)=O)N(C)C(=O)[C@H](Cc2c[nH]c3ccccc23)NC(=O)[C@H](CCCNC(=N)N)N(C)C(=O)[C@@H](Cc2ccccc2)NC(=O)[C@H](Cc2c[nH]cn2)NC1=O [^177Lu-labeled CCZ01118, metal not drawn] 556

Do the same for CCCC[C@H](NC(=O)CN1CCC(NC(=O)[C@H](CCCCNC(=O)CN2CCN(CC(=O)O)CCN(CC(=O)O)CCN(CC(=O)O)CC2)NC(=O)[C@H](CCC(=O)O)NC(=O)CCCc2ccc(I)cc2)CC1)C(=O)N[C@H]1CC(=O)NCCCC[C@@H](C(N)=O)N(C)C(=O)[C@H](Cc2c[nH]c3ccccc23)N(C)C(=O)[C@H](CCCNC(=N)N)N(C)C(=O)[C@@H](Cc2ccccc2)NC(=O)[C@H](Cc2c[nH]cn2)N(C)C1=O [^177Lu-labeled CCZ01088, metal not drawn] please 104

Do the same for CCCC[C@H](NC(=O)CN1CCC(NC(=O)CN2CCN(CC(=O)O)CCN(CC(=O)O)CCN(CC(=O)O)CC2)CC1)C(=O)N[C@H]1CC(=O)NCCCC[C@@H](C(N)=O)N(C)C(=O)[C@H](Cc2c[nH]c3ccccc23)NC(=O)[C@H](CCCNC(=N)N)N(C)C(=O)[C@@H](Cc2ccccc2)NC(=O)[C@H](Cc2c[nH]cn2)NC1=O [^177Lu-labeled CCZ01106, metal not drawn] please 320

Do the same for CCCC[C@H](NC(=O)CN1CCC(NC(=O)[C@H](CCCCNC(=O)CN2CCN(CC(=O)O)CCN(CC(=O)O)CCN(CC(=O)O)CC2)NC(=O)[C@H](CCC(=O)O)NC(=O)CCCc2ccc(I)cc2)CC1)C(=O)N[C@H]1CC(=O)NCCCC[C@@H](C(N)=O)NC(=O)[C@H](Cc2c[nH]c3ccccc23)NC(=O)[C@H](CCCNC(=N)N)NC(=O)[C@@H](Cc2ccccc2)NC(=O)[C@H](Cc2c[nH]cn2)NC1=O [^177Lu-labeled CCZ01082, metal not drawn] please 167

Do the same for CCCC[C@H](NC(=O)CN1CCC(NC(=O)CN2CCN(CC(=O)O)CCN(CC(=O)O)CCN(CC(=O)O)CC2)CC1)C(=O)N[C@H]1CC(=O)NCCCC[C@@H](C(N)=O)NC(=O)[C@H](Cc2c[nH]c3ccccc23)NC(=O)[C@H](CCCNC(=N)N)NC(=O)[C@@H](Cc2ccccc2)NC(=O)[C@H](Cc2c[nH]cn2)NC1=O [^177Lu-labeled CCZ01048, metal not drawn, reference compound] please 239

---

assay: Biodistribution of 177Lu-labeled αMSH analogues in mice bearing B16F10 mouse melanoma; assay type: in vivo, C57BL/6J mice; settings: mouse, tumour/blood, iv, total radioactivity; 1 h p.i., C57BL/6J mice, B16F10 melanoma; read-out: Tumour/blood
measurement-label: tissue to tissue ratio at 1 h
Give only the figure.

Please give the measured tissue to tissue ratio at 1 h for this molecule: CCCC[C@H](NC(=O)CN1CCC(NC(=O)[C@H](CCCCNC(=O)CN2CCN(CC(=O)O)CCN(CC(=O)O)CCN(CC(=O)O)CC2)NC(=O)[C@H](CCC(=O)O)NC(=O)CCCc2ccc(I)cc2)CC1)C(=O)N[C@H]1CC(=O)NCCCC[C@@H](C(N)=O)N(C)C(=O)[C@H](Cc2c[nH]c3ccccc23)NC(=O)[C@H](CCCNC(=N)N)N(C)C(=O)[C@@H](Cc2ccccc2)NC(=O)[C@H](Cc2c[nH]cn2)NC1=O [^177Lu-labeled CCZ01118, metal not drawn] 3.58

Do the same for CCCC[C@H](NC(=O)CN1CCC(NC(=O)[C@H](CCCCNC(=O)CN2CCN(CC(=O)O)CCN(CC(=O)O)CCN(CC(=O)O)CC2)NC(=O)[C@H](CCC(=O)O)NC(=O)CCCc2ccc(I)cc2)CC1)C(=O)N[C@H]1CC(=O)NCCCC[C@@H](C(N)=O)NC(=O)[C@H](Cc2c[nH]c3ccccc23)NC(=O)[C@H](CCCNC(=N)N)NC(=O)[C@@H](Cc2ccccc2)NC(=O)[C@H](Cc2c[nH]cn2)NC1=O [^177Lu-labeled CCZ01082, metal not drawn] please 1.82
